Where do these numbers come from? They come from patent US7176320B2.

measurement-target: recombinant human mast cell chymase (Homo sapiens)
method-summary: Measurement of inhibition of enzyme activity of recombinant human mast cell chymase
condition-notes: active human mast cell chymase, substrate succinyl-alanyl-histidyl-prolyl-phenylalanylparanitroanilide, 5 minutes at room temperature, absorbance 405 nm; read-out: inhibitory activity IC50
Protocol: Recombinant human mast cell chymase was prepared in accordance with the report of Urata, et al. (Journal of Biological Chemistry, Vol. 266, p. 17173 (1991)). Namely, human mast cell chymase was purified by heparin sepharose (Pharmacia) from a culture supernatant of insect cells (Th5) infected with recombinant baculovirus containing cDNA coding for human mast cell chymase. […]
measured-metric: IC50

Task item: Param readout = IC50; param system = recombinant human mast cell chymase (Homo sapiens); param query = COc1ccc2c(c1)nc(SCCCC(=O)O)n2Cc1csc2ccc(C)cc12 ; response: value
Reply: 10 to 100 nM

Task item: Also COc1ccc2c(c1)nc(SCCCC(=O)O)n2Cc1cn(C)c2cccc(C)c12 , if possible.
Reply: 10 to 100 nM

Task item: Okay, and COc1ccc2nc(SCCCC(=O)O)n(Cc3csc4ccc(C)cc34)c2c1 ?
Reply: 1 to 10 nM

Task item: Could you do the same for O=C(O)CCCSc1nc2cc(Cl)c(Cl)cc2n1Cc1csc2ccccc12 , please?
Reply: 10 to 100 nM

Task item: Proceed to COc1ccc2c(c1)nc(SCCCC(=O)O)n2Cc1csc2cccc(C)c12
Reply: 1 to 10 nM

Task item: Now consider COc1ccc2nc(SCCCC(=O)O)n(Cc3csc4cccc(C)c34)c2c1 .
Reply: 1 to 10 nM

Task item: Then Cc1ccc2nc(SCCCC(=O)O)n(Cc3csc4ccccc34)c2c1 ?
Reply: 10 to 100 nM

Task item: Try this molecule too: Cc1cc2nc(SCCCC(=O)O)n(Cc3csc4ccccc34)c2cc1C
Reply: 1 to 10 nM

Task item: Okay, and COc1ccc2c(c1)nc(SCCCC(=O)O)n2Cc1csc2ccccc12 ?
Reply: 1 to 10 nM

* * *

method-summary: In vitro metabolism test using liver microsomes (Ms)
Type: in vitro ADME
condition-notes: liver microsomes 1.0 mg/mL, substrate 5.0 μM, NADPH 1.0 mM, 37° C., pH 7.4
measured-metric: MR (metabolic rate at its maximum) (nmol/min./mg protein)

Task item: What MR (metabolic rate at its maximum) value was documented for this compound, N#Cc1ccc2c(c1)nc(SCCCC(=O)O)n2Cc1csc2ccccc12 ?
Reply: 0.211

Task item: What about Cc1cc2nc(SCCCC(=O)O)n(Cc3csc4ccccc34)c2cc1C ?
Reply: 0.277

Task item: Next compound: Cc1ccc2scc(Cn3c(SCCCC(=O)O)nc4ccccc43)c2c1
Reply: 0.111

[P] Cc1cc2nc(SCCCC(=O)O)n(Cc3cn(C)c4ccccc34)c2cc1C
[Q] Cn1cc(Cn2c(SCCCC(=O)O)nc3ccccc32)c2ccccc21
Task item: Lower MR (metabolic rate at its maximum): P or Q ? # respond with the chosen item's label
Reply: P

* * *

Recorded measurements of pIC50, one per entry
measurement-target: recombinant human mast cell chymase (Homo sapiens, UniProt P23946)
Sequence (P23946 22-247): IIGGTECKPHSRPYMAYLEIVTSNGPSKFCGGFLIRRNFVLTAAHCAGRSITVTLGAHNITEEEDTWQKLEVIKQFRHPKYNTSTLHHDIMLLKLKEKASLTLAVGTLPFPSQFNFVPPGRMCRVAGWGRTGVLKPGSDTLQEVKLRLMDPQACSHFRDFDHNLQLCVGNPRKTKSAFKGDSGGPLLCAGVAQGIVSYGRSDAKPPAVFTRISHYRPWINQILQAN
method-summary: Measurement of inhibition of enzyme activity of recombinant human mast cell chymase
condition-notes: active human mast cell chymase, substrate succinyl-alanyl-histidyl-prolyl-phenylalanylparanitroanilide, 5 minutes at room temperature, absorbance 405 nm; read-out: inhibitory activity IC50
pIC50: −log10 of the molar value.

Here is how some compounds turned out for pIC50.
Task item: Name the recorded pIC50 for Cc1cccc2c1c(Cn1c(SCCCC(=O)O)nc3ccccc31)cn2C [Compound No. 39] .
Reply: 8.00 to 9.00

Task item: Entry Cn1cc(Cn2c(SCCCC(=O)O)nc3ccccc32)c2ccccc21 [Compound No. 34] please
Reply: 7.00 to 8.00

// below: pIC50 requested for another compound
Task item: I am curious: what pIC50 value has been reported for Cc1cc2nc(SCCCC(=O)O)n(Cc3cn(C)c4cccc(C)c34)c2cc1C [Compound No. 519] ?
Reply: 8.00 to 9.00
